- Study system: USP25 (USP25-His6, Boston Biochem E-546) (Homo sapiens)
- Construct: His6; purchased Boston Biochem E-546
- Sequence (Q9UHP3 whole entry): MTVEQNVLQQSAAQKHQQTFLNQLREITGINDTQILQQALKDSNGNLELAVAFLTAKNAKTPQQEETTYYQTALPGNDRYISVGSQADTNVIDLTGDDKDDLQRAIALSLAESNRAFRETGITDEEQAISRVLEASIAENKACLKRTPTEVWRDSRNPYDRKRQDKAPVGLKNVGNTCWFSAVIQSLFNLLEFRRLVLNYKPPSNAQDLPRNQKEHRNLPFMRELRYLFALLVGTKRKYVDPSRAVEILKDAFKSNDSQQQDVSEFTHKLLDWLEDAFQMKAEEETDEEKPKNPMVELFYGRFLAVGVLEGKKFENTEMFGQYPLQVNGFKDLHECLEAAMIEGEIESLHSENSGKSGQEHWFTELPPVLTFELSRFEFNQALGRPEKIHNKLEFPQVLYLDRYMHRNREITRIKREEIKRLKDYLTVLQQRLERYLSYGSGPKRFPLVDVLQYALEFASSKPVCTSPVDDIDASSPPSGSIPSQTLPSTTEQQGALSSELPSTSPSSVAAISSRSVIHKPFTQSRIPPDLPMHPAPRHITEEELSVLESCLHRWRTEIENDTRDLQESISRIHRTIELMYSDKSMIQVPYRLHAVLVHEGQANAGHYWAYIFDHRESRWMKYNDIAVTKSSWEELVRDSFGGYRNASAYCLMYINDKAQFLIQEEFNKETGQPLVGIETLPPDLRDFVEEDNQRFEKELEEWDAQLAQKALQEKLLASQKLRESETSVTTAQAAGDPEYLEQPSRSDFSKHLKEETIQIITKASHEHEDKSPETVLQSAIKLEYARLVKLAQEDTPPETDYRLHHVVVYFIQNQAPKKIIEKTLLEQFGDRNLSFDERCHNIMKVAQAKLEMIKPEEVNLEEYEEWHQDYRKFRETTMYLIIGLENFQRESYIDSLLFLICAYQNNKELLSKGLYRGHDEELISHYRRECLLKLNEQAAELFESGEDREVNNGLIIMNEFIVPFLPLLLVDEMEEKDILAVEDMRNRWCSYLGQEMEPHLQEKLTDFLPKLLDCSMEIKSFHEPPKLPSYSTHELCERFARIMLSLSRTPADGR
- Protocol description: Ubiquitin-Rhodamine 110 Assay for USP25 Activity, Example A-2
- Format: biochemical
- Measurement context: Ub-Rh110 assay, Example A-2; read-out: USP25 A-2 IC50 range
Can you tell me IC50 for the items I'm about to list?

Lookup result for Cc1nc2sc(C(=O)N[C@@H]3COc4cc(N5CC6CCC(C5)N6)cc(F)c4C3)c(N)c2s1 (single isomer, unassigned) ; measured IC50: > 2000 nM

Lookup result for "Cc1ccc2c(N)c(C(=O)N[C@H]3COc4cc(N5CCCC56CNC6)ccc4C3)sc2n1" ; measured IC50: 200 to 2000 nM

Lookup result for "Cc1ccc2c(N)c(C(=O)N[C@H]3COc4cc(N5CC6CC(C5)N6)ccc4C3)sc2n1" ; measured IC50: 50 to 200 nM

Lookup result for "Cc1nc2sc(C(=O)N[C@H]3COc4cc(N5CC6CC(C5)N6)ccc4C3)c(N)c2s1" ; measured IC50: 200 to 2000 nM

---

Can you tell me IC50 for the items I'm about to list?
- Study system: USP28 (His-tagged USP28-FL-mammalian) (Homo sapiens, UniProt Q96RU2)
- Construct: Expression of USP28 (1-1077)-TEV-6*His (pTT5 vector); made in house; host or cells: Expi293f cells (pTT5 vector)
- Sequence (Q96RU2 whole entry): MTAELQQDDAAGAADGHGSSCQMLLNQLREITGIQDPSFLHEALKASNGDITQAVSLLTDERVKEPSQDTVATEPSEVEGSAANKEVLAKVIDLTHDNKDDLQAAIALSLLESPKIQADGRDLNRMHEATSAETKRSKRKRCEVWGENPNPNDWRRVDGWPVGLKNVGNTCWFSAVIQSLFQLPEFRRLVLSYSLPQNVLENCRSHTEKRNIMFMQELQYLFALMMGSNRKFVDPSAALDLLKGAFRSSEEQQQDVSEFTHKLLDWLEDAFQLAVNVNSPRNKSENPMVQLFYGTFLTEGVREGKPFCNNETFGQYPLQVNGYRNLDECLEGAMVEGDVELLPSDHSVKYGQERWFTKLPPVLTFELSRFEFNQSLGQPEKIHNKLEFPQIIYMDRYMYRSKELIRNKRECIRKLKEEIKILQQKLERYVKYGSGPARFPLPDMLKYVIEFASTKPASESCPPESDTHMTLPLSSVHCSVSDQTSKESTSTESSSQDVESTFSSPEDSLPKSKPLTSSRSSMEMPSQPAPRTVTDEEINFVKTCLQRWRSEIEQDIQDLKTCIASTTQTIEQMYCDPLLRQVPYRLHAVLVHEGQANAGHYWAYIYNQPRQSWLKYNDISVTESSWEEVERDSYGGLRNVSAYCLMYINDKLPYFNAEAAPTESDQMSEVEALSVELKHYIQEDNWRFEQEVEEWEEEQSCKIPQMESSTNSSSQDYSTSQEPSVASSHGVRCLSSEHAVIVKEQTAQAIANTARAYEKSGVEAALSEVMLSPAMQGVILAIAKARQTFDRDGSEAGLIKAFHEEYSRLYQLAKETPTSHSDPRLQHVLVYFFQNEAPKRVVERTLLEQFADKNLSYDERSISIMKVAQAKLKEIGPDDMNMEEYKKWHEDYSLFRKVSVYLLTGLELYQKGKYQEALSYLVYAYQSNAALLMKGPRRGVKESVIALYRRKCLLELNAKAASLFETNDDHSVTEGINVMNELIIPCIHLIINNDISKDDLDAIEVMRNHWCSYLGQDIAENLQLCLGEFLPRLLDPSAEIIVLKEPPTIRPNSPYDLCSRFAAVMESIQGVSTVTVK
- Protocol description: Ubiquitin-Rhodamine 110 Assay for USP28 Activity, Example A-1(a)
- Assay type: biochemical
- Measurement context: Ubiquitin-Rhodamine 110 assay, Example A-1(a); read-out: USP28 A-1(a) IC50 range
- Source text: Example A-1(a): Biochemical Assay: Ubiquitin-Rhodamine 110 Assay for USP28 Activity […] For assay formats Example A-1(a), A-1(b), and A-2, data were reported as percent inhibition compared with control wells based on the following equation: % inh=1−((FLU−AveLow)/(AveHigh−AveLow)) where FLU=measured Fluorescence, AveLow=average Fluorescence of no enzyme control (n=16), and AveHigh=average Fluorescence of DMSO control (n=16). […]

Lookup result for Cc1ccc2c(N)c(C(=O)N[C@H]3COc4cc(N5C[C@H](N)[C@H]6OCC[C@H]65)ccc4C3)sc2n1 [Example 426] ; measured IC50: 1 to 50 nM

Lookup result for COc1ccc2c(N)c(C(=O)N[C@H]3CCc4cc(N5CC6CCC(C5)N6)ccc4C3)sc2n1 (single isomer, unassigned) [Example 11-5] ; measured IC50: 1 to 50 nM

Lookup result for CN[C@@H]1CN(c2ccc3c(n2)CC[C@H](NC(=O)c2sc4nc(C)ccc4c2N)C3)C[C@H]1COC (single isomer, unassigned) [Example 26-2] ; measured IC50: 50 to 200 nM

Lookup result for Cc1ccc2c(N)c(C(=O)N[C@H]3CCc4cc(N5CCNCC5)ncc4C3)sc2n1 (single isomer, unassigned) [Example 32-1] ; measured IC50: 50 to 200 nM

Lookup result for Cc1ccc2c(N)c(C(=O)N[C@H]3Cc4ccc(N5CCNCC5)nc4[C@@H](C)C3)sc2n1 [Example 206] ; measured IC50: 50 to 200 nM

Lookup result for Cc1ccc2c(N)c(C(=O)N[C@H]3CCc4c(ccc(N5CC6CNCC(C5)O6)c4C#N)C3)sc2n1 [Example 102] ; measured IC50: 1 to 50 nM

Lookup result for Cc1ccc2c(N)c(C(=O)N[C@H]3COc4cc(N5C[C@@H]6OCCN[C@@H]6C5)ccc4C3)sc2n1 [Example 154] ; measured IC50: 50 to 200 nM

Lookup result for CCn1ccc2cc(C(=O)N[C@H]3CCc4nc(N5C[C@H](NC)[C@@H](OC)C5)ccc4C3)cnc21 [Example 402] ; measured IC50: 200 to 2000 nM

Lookup result for COC[C@H]1CN(c2ccc3c(c2)CC[C@H](NC(=O)c2sc4nc(C)ccc4c2N)C3)C[C@H]1N [Example 253] ; measured IC50: 1 to 50 nM

---

- Study system: USP28 (His-tagged USP28-FL-mammalian) (Homo sapiens)
- Construct: Expression of USP28 (1-1077)-TEV-6*His (pTT5 vector); made in house; host or cells: Expi293f cells (pTT5 vector)
- Protocol description: Ubiquitin-Rhodamine 110 Assay for USP28 Activity, Example A-1(a)
- Assay type: biochemical
- Measurement context: Ubiquitin-Rhodamine 110 assay, Example A-1(a); read-out: USP28 A-1(a) IC50 range
Can you tell me IC50 for the items I'm about to list?

Lookup result for "Cc1cc(C)c2c(N)c(C(=O)N[C@H]3CCc4nc(N5CCNCC5)ccc4C3)sc2n1" ; measured IC50: 0.001 to 0.05 µM

Lookup result for "Cc1cnc2c(N)c(C(=O)N[C@H]3COc4c(F)c(N5CC6CCC(C5)N6)cc(F)c4C3)sc2n1" ; measured IC50: 0.001 to 0.05 µM

Lookup result for "O=C(N[C@H]1COc2cc(N3CCNCC3)ccc2C1)c1ccc(NCc2ccccn2)nc1" ; measured IC50: > 2 µM

Lookup result for "CO[C@@H]1CCN(c2ccc3c(c2)OC[C@H](NC(=O)c2sc4nc(C)cc(C)c4c2N)C3)C[C@H]1N" ; measured IC50: 0.001 to 0.05 µM

Lookup result for "CO[C@@]1(C)CN(c2ccc3c(n2)OC[C@H](NC(=O)c2sc4nc(C)ccc4c2N)C3)C[C@@H]1N" ; measured IC50: 0.05 to 0.2 µM

Lookup result for "COC[C@@H]1CN(c2cc(F)c3c(c2F)OC[C@H](NC(=O)c2sc4nc(C)cc(C)c4c2N)C3)C[C@@H]1N" ; measured IC50: 0.001 to 0.05 µM

Lookup result for "Cc1ccc2c(N)c(C(=O)N[C@H]3COc4c(F)c(N5CC6CNCC(C5)O6)cc(F)c4C3)sc2n1" ; measured IC50: 0.001 to 0.05 µM

Lookup result for Cc1cnc2c(N)c(C(=O)N[C@H]3CCc4cc(N5CCNC[C@@H](O)C5)ccc4C3)sc2n1 (single isomer, unassigned) ; measured IC50: 0.05 to 0.2 µM

Lookup result for "CO[C@H]1CN(c2ccc3c(n2)CC[C@H](NC(=O)c2sc4nc(C)cc(C)c4c2N)C3)C[C@@H]1NC(C)=O" ; measured IC50: 0.05 to 0.2 µM

Lookup result for "COC[C@H]1CN(c2ccc3c(n2)OC[C@H](NC(=O)c2sc4nc(C)cc(C)c4c2N)C3)C[C@H]1N" ; measured IC50: 0.05 to 0.2 µM

---

- Study system: USP28 (His-tagged USP28-FL-mammalian) (Homo sapiens)
- Construct: Expression of USP28 (1-1077)-TEV-6*His (pTT5 vector); made in house; host or cells: Expi293f cells (pTT5 vector)
- Protocol description: Ubiquitin-Rhodamine 110 Assay for USP28 Activity, Example A-1(a)
- Assay type: biochemical
- Measurement context: Ubiquitin-Rhodamine 110 assay, Example A-1(a); read-out: USP28 A-1(a) IC50 range
pIC50: −log10 of the molar value.
Experimental readout: pIC50

Short answer on USP28 (His-tagged USP28-FL-mammalian) (Homo sapiens) for "Cc1ccc2c(N)c(C(=O)N[C@H]3CCc4cc(N5CC6CCC(C5)N6)ccc4C3)sc2n1" , pIC50: 7.30 to 9.00

Short answer on USP28 (His-tagged USP28-FL-mammalian) (Homo sapiens) for "CCO[C@@H]1CN(c2ccc3c(n2)CC[C@H](NC(=O)c2sc4nc(C)ccc4c2N)C3)C[C@@H]1N" , pIC50: 6.70 to 7.30

Short answer on USP28 (His-tagged USP28-FL-mammalian) (Homo sapiens) for "Cc1ccc2c(N)c(C(=O)N[C@H]3COc4c(F)c(N5CCNCC5)cc(F)c4C3)sc2n1" , pIC50: 7.30 to 9.00

Short answer on USP28 (His-tagged USP28-FL-mammalian) (Homo sapiens) for Cc1nc2sc(C(=O)N[C@H]3CCc4cc(N5CC6CCC(C5)N6)ccc4C3)c(N)c2cc1F (single isomer, unassigned) , pIC50: 6.70 to 7.30

Short answer on USP28 (His-tagged USP28-FL-mammalian) (Homo sapiens) for "CCn1ccc2cc(C(=O)N[C@H]3CCc4nc(N5C[C@@H](N)C6(COC6)C5)ccc4C3)cnc21" , pIC50: 5.70 to 6.70

---

- Study system: USP28 (His-tagged USP28-FL-mammalian) (Homo sapiens, UniProt Q96RU2)
- Construct: Expression of USP28 (1-1077)-TEV-6*His (pTT5 vector); made in house; host or cells: Expi293f cells (pTT5 vector)
- Protocol description: Ubiquitin-Rhodamine 110 Assay for USP28 Activity, Example A-1(a)
- Format: biochemical
- Measurement context: Ubiquitin-Rhodamine 110 assay, format Example A-1(a); read-out: USP28 A-1(a) IC50 range
pIC50: −log10 of the molar value.
Can you tell me pIC50 for the items I'm about to list?

Lookup result for Cc1ccc2c(N)c(C(=O)N[C@H]3CCc4cc(N5CCNCC5)c(F)cc4C3)sc2n1 (single isomer, unassigned) [Example 21-8] ; measured pIC50: 5.70 to 6.70

Lookup result for Cc1ccc2c(N)c(C(=O)N[C@@H]3CCc4c(F)c(N5CC6CCC(C5)N6)cc(F)c4C3)sc2n1 (single isomer, unassigned) [Example 22-6] ; measured pIC50: 5.70 to 6.70

Lookup result for Cc1ccc2c(N)c(C(=O)N[C@H]3CCc4cc(N5CC6CCC(C5)N6)c(C#N)cc4C3)sc2n1 (single isomer, unassigned) [Example 14-4] ; measured pIC50: 7.30 to 9.00

Lookup result for Cc1ccc2c(N)c(C(=O)N[C@@H]3CCc4c(ccc(N5CC6CCC(C5)N6)c4F)C3)sc2n1 (single isomer, unassigned) [Example 21-1] ; measured pIC50: 6.70 to 7.30

Lookup result for CO[C@H]1CN(c2ccc3c(n2)CC[C@H](NC(=O)c2sc4nc(C)cnc4c2N)C3)C[C@@H]1N (single isomer, unassigned) [Example 23-1] ; measured pIC50: 5.70 to 6.70

Lookup result for Cc1ccc2c(N)c(C(=O)N[C@H]3CCc4c(ccc(N5CC6CCC(C5)N6)c4F)C3)sc2n1 (single isomer, unassigned) [Example 21-2] ; measured pIC50: 7.30 to 9.00

Lookup result for Cc1cnc2c(N)c(C(=O)N[C@H]3CCc4cc(N5CC6CCC(C5)N6)c(C#N)cc4C3)sc2n1 (single isomer, unassigned) [Example 14-8] ; measured pIC50: 7.30 to 9.00
